- measurement-target: KIT (Homo sapiens)
- Construct: made in house
- Sequence (P10721 26-976): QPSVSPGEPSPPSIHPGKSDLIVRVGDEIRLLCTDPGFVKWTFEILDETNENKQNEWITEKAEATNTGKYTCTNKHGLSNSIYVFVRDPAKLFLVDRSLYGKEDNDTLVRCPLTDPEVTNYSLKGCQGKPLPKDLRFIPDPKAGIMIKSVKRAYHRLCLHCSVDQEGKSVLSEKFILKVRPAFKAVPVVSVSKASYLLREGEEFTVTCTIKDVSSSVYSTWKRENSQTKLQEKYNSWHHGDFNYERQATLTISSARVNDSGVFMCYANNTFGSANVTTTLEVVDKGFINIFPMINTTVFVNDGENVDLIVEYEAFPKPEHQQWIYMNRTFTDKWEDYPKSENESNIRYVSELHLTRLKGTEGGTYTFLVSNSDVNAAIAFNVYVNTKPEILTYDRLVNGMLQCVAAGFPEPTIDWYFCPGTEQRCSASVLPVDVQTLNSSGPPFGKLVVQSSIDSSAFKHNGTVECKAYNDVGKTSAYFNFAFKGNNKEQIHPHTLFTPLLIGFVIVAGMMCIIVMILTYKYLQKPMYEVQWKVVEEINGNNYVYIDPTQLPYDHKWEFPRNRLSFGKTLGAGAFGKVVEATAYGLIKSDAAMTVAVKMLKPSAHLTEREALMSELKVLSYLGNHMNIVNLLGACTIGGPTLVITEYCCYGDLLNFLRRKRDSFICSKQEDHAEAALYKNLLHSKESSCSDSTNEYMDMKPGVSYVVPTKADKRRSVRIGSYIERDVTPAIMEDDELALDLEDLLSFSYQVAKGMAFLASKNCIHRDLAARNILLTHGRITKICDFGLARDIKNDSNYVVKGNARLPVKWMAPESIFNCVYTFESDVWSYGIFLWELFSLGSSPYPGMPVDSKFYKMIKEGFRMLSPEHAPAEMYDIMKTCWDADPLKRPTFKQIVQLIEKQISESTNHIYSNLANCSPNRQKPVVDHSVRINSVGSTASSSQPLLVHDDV
- experiment: Competition binding assay, KIT Kd
- protocol-conditions: competition binding
- Experimental: Competition binding assays used herein were developed, validated and performed as described in Fabian et al., Nature Biotechnology 2005, 23, 329-336. […] Kds were determined using an eleven point threefold serial dilutions. […] The kinase concentration in the eluates was measured by quantitative PCR.
pKd: −log10 of the molar value.
endpoint: pKd

Qu. Quick one: pKd for N#Cc1ccn2c(Cc3ccc4nc(N[C@@H]5CCCC[C@H]5O)sc4c3)cnc2c1 ?
Ans. < 5.70

Qu. What value of measured pKd is listed for O=C(O)/C=C/c1ccc2c(c1)ncn2Cc1ccc2nc(N[C@@H]3CCCC[C@H]3O)sc2c1 ?
Ans. ≥ 7.00

Qu. Recorded pKd of O[C@@H]1CCCC[C@H]1Nc1nc2ccc(Cn3cnc4cc(F)ccc43)cc2s1 , please.
Ans. ≥ 7.00

Qu. pKd lookup needed for OC[C@H]1CCC[C@@H](Nc2nc3ccc(Cn4cnc5cc(F)cnc54)cc3s2)C1 , thanks.
Ans. ≥ 7.00

----------
- measurement-target: FLT3 (Homo sapiens, UniProt P36888)
- Construct: made in house
- Sequence (P36888 27-993): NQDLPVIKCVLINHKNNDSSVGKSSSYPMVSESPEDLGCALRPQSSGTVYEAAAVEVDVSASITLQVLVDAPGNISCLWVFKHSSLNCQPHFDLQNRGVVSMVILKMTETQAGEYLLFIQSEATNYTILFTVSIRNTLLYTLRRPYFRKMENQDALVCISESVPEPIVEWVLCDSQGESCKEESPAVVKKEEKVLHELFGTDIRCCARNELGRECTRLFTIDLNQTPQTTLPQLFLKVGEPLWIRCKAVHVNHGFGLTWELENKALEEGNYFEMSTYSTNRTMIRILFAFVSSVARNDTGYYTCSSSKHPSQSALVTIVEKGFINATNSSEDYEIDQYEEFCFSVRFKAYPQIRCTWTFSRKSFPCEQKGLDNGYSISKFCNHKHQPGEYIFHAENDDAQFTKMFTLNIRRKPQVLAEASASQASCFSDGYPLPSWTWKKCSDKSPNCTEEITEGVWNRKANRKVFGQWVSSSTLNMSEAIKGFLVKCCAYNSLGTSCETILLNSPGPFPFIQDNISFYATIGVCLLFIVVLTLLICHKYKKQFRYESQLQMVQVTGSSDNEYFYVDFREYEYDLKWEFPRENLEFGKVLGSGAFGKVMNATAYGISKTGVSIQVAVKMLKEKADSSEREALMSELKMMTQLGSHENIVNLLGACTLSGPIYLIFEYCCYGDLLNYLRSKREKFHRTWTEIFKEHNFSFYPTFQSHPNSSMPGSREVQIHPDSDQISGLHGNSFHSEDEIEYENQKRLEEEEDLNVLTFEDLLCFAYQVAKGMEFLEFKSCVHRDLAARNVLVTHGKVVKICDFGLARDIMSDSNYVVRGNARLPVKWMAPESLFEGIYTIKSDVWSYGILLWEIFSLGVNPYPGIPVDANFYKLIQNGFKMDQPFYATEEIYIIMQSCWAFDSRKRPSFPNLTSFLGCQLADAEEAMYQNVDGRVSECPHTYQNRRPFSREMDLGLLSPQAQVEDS
- experiment: Competition binding assay, FLT3 Kd
pKd: −log10 of the molar value.
endpoint: pKd

[[record]]
molecule = "O[C@@H]1Cc2ccccc2[C@H]1Nc1nc2ccc(Cn3cnc4cc(Br)cnc43)cc2s1"
endpoint = "pKd"
recorded_result = "5.30 to 6.00"

[[record]]
molecule = "CCOc1ccccc1Nc1nc2ccc(Cn3cnc4cc(OC)c(OC)cc43)cc2s1"
endpoint = "pKd"
recorded_result = "5.30 to 6.00"


Qu. Param item = CS(=O)(=O)O.O[C@@H]1CCCC[C@H]1Nc1nc2ccc(Cn3cnc4cccnc43)cc2s1 ; retrieve measured pKd.
Ans. 5.30 to 6.00

Qu. // lookup pKd for N#Cc1ccc2ncn(Cc3ccc4nc(N[C@@H]5CCCC[C@H]5O)sc4c3)c2n1
Ans. 6.00 to 6.70

Qu. Can you share its pKd? I mean this molecule: Cn1cc(-c2nccn(Cc3ccc4nc(N[C@@H]5CCCC[C@H]5O)sc4c3)c2=O)cn1
Ans. < 5.30

Qu. Requested read-out: pKd. Entry: O[C@@H]1Cc2ccccc2[C@H]1Nc1nc2ccc(Cn3cnc4cc(F)cnc43)cc2s1
Ans. 5.30 to 6.00

Qu. So what does the record say about pKd for C#Cc1cnc2c(c1)ncn2Cc1ccc2nc(N[C@@H]3CCCC[C@H]3O)sc2c1 ?
Ans. ≥ 6.70

----------
- measurement-target: CSF1R (Homo sapiens)
- Sequence (P07333 20-972): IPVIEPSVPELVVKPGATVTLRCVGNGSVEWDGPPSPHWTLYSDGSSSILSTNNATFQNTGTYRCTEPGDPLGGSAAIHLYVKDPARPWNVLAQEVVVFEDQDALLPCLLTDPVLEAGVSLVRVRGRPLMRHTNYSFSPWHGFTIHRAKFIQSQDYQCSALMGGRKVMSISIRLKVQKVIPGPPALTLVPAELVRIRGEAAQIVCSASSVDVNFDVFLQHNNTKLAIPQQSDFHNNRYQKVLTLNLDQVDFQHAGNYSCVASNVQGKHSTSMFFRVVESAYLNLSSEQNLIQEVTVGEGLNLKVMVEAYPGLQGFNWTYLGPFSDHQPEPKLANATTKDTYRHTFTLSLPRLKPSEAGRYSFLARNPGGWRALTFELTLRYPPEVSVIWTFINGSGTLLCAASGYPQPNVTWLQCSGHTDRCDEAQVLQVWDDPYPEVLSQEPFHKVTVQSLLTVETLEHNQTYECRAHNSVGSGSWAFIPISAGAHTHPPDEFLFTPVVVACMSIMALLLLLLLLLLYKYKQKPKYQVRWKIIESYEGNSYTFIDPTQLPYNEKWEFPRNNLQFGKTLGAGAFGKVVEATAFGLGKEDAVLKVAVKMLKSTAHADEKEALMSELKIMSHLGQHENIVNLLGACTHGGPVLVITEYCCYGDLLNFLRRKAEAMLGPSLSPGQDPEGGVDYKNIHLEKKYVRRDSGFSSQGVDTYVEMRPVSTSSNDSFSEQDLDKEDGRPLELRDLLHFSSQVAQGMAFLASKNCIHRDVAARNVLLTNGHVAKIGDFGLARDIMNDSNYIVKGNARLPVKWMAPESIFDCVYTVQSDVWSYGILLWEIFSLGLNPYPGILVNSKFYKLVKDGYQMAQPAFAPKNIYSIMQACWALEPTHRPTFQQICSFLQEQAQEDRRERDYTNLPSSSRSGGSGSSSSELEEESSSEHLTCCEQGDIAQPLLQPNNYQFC
- experiment: HEK293 CSF1R phosphorylation MSD assay
- Format: cell-based
- Set-up: expressed in transfected cells; host or cells: HEK293
- protocol-conditions: HEK293 cells, M-CSF stimulated CSF1R phosphorylation, MSD; read-out: HEK293 pCSF1R M-CSF MSD:IC50
endpoint: IC50

Example cases with answers are listed next.
[[record]]
item_smiles = "N#Cc1cc(F)c2c(c1)ncn2Cc1ccc2nc(N[C@@H]3CCCC[C@H]3O)sc2c1"
endpoint = "IC50"
recorded_result = "0.05 to 0.2 µM"

[[record]]
item_smiles = "O[C@@H]1CCCC[C@H]1Nc1nc2cc(F)c(Cn3cnc4cccnc43)cc2s1"
endpoint = "IC50"
recorded_result = "0.05 to 0.2 µM"


Proceed to the following item.
Qu. GET /values?readout=IC50&system=CSF1R (Homo sapiens)&item= N#Cc1ccc2c(c1)ncn2Cc1ccc2nc(N[C@@H]3CCCC[C@H]3O)sc2c1
Ans. 0.05 to 0.2 µM
